assay: BCS solubility of Ecopipam HCl in pH buffers and bio-relevant media; format: physicochemical; details: 37 °C, pH 3, aqueous buffer, thermodynamic from solid, pH 3.0 citrate buffer, 100 mM, up to 24 hours; final pH 2.96
measurement-name: solubility at 24 h (mg/mL)
Express it in mg/mL; write the number only.

input: What value of measured solubility at 24 h is listed for CN1CCc2cc(Cl)c(O)cc2[C@H]2c3ccccc3CC[C@@H]21.Cl [Ecopipam HCl] ?
output: 9.4

* * *

assay: BCS solubility of Ecopipam HCl in pH buffers and bio-relevant media; format: physicochemical; settings: 37 °C, pH 5.5, aqueous buffer, thermodynamic from solid, pH 5.5 acetate buffer, 50 mM, up to 24 hours; final pH 5.49
measurement-name: solubility at 24 h (µg/mL)
Express it in µg/mL; write the number only.

input: What value of measured solubility at 24 h is listed for CN1CCc2cc(Cl)c(O)cc2[C@H]2c3ccccc3CC[C@@H]21.Cl [Ecopipam HCl] ?
output: 230

* * *

Test: BCS solubility of Ecopipam HCl in pH buffers and bio-relevant media
Format: physicochemical
Conditions: 37 °C, pH 4.5, aqueous buffer, thermodynamic from solid, pH 4.5 acetate buffer, 50 mM, up to 24 hours; final pH 4.50
Experimental: Solubility and final pH were the average of three parallel values. Purity was that of 24 hours. N/A means not performed.
measurement-name: solubility at 24 h (µg/mL)
Express it in µg/mL; write the number only.

input: What value of measured solubility at 24 h is listed for CN1CCc2cc(Cl)c(O)cc2[C@H]2c3ccccc3CC[C@@H]21.Cl [Ecopipam HCl] ?
output: 3300

* * *

assay: Phase 1 absorption, metabolism and excretion study of [14C]-ecopipam, single oral capsule dose; assay type: in vivo, human; conditions: male, human, plasma; single oral dose 200 mg [14C]-ecopipam HCl; read-out: Geometric mean apparent terminal elimination half-life (t½) of analyte (converted)
measurement-name: half-life (min)
Express it in min; write the number only.

input: What value of measured half-life is listed for CN1CCc2cc(Cl)c(O)cc2[C@H]2c3ccccc3CC[C@@H]21 ?
output: 1040

* * *

assay: BCS solubility of Ecopipam HCl in pH buffers and bio-relevant media; type: physicochemical; conditions: 37 °C, pH 5.84, fessif, thermodynamic from solid, FeSSIF-V2; final pH 5.84
measurement-name: solubility at 24 h (µg/mL)
Express it in µg/mL; write the number only.

input: What value of measured solubility at 24 h is listed for CN1CCc2cc(Cl)c(O)cc2[C@H]2c3ccccc3CC[C@@H]21.Cl [Ecopipam HCl] ?
output: 660

* * *

assay: BCS solubility of Ecopipam HCl in pH buffers and bio-relevant media; type: physicochemical; details: 37 °C, pH 1.61, fassgf or other biorelevant, thermodynamic from solid, FaSSGF; final pH 1.61
measurement-name: solubility at 24 h (mg/mL)
Express it in mg/mL; write the number only.

input: What value of measured solubility at 24 h is listed for CN1CCc2cc(Cl)c(O)cc2[C@H]2c3ccccc3CC[C@@H]21.Cl [Ecopipam HCl] ?
output: 2

* * *

experiment: BCS solubility of Ecopipam HCl in pH buffers and bio-relevant media; type: physicochemical; details: 37 °C, pH 3, aqueous buffer, thermodynamic from solid, pH 3.0 phthalate buffer, 50 mM, up to 24 hours; final pH 3.05
measurement-name: solubility at 24 h (µg/mL)
Express it in µg/mL; write the number only.

input: What value of measured solubility at 24 h is listed for CN1CCc2cc(Cl)c(O)cc2[C@H]2c3ccccc3CC[C@@H]21.Cl [Ecopipam HCl] ?
output: 8

Values were extracted from patent US12594281B2.
